system: Measles morbillivirus; test: Antiviral activity against Measles virus Alaska in Vero cells assessed as reduction of viral titer; assay type: functional, organism-based
Please note: EC50 exactly at 30 nM is F. Only values below 30 nM get T.

CCN(CC)S(=O)(=O)c1ccc(NC(=O)c2cc(C(F)(F)F)nn2C)cc1
T
CC(C)N(C(C)C)S(=O)(=O)c1ccc(NC(=O)c2cc(C(F)(F)F)nn2C)cc1
F

Q: EC50 strictly < 30 nM for this compound? CC1CCCCN1S(=O)(=O)c1ccc(NC(=O)c2cc(C(F)(F)F)nn2C)cc1 (stereo not drawn)
Ans: T

Q: // query: CC1CCCC(C)N1S(=O)(=O)c1ccc(NC(=O)c2cc(C(F)(F)F)nn2C)cc1 (stereo not drawn)
Ans: T

Q: // query: `Cn1nc(C(F)(F)F)cc1C(=O)Nc1ccc(S(=O)(=O)N2CCCCC2)cc1`
Ans: T

Q: // query: `COC(=O)c1ccccc1-n1nc(C(F)(F)F)cc1C(=O)Nc1ccc(S(=O)(=O)N2CCCC2)cc1`
Ans: F

Q: // query: `Cn1nc(C(F)(F)F)cc1C(=O)Nc1ccc(S(=O)(=O)N2CCC(O)CC2)cc1`
Ans: F

Q: // query: `Cn1nc(C(F)(F)F)cc1C(=O)Nc1ccc(S(=O)(=O)N2CCCCCCC2)cc1`
Ans: F

###

assay: Selectivity index, ratio of CC50 for african green monkey Vero cells to EC50 for Measles virus Alaska; assay type: toxicity, cell-based; conditions: read-out: Ratio CC50/EC50
Metric Name: selectivity ratio
Give only the figure.

Q: Data request, read-out selectivity ratio, for `Cn1nc(C(F)(F)F)cc1C(=O)Nc1ccc(S(=O)(=O)N2CCCCC2)cc1`
Ans: 14200

###

Entries and their log10 of CC50 values follow.
assay: Cytotoxicity against african green monkey Vero cells by trypan blue exclusion assay; type: cell-based; settings: chlorocebus sabaeus
Log scale reminder: CC50 in µM, then log10 taken.

CC1CCN(S(=O)(=O)c2ccc(NC(=O)c3cc(C(F)(F)F)nn3C)cc2)CC1
1.72
CC1CCCCN1S(=O)(=O)c1ccc(NC(=O)c2cc(C(F)(F)F)nn2Cc2ccccc2)cc1 (centres undefined)
1.28
CCC1CCCCN1S(=O)(=O)c1ccc(NC(=O)c2cc(C(F)(F)F)nn2C)cc1 (centres undefined)
1.15

Q: Data request, read-out log10 of CC50, for `CCN(CC)S(=O)(=O)c1ccc(NC(=O)c2cc(C(F)(F)F)nn2C)cc1`
Ans: 2.45

Q: // query: CC1CCCC(C)N1S(=O)(=O)c1ccc(NC(=O)c2cc(C(F)(F)F)nn2C)cc1 (centres undefined)
Ans: 2.52

Q: // query: CC1CCCCN1S(=O)(=O)c1ccc(NC(=O)c2cc(C(F)(F)F)nn2C)cc1 (centres undefined)
Ans: 1.73

Q: // query: `Cn1nc(C(F)(F)F)cc1C(=O)Nc1ccc(S(=O)(=O)N2CCCCCC2)cc1`
Ans: 2.63

###

assay: Cytotoxicity against african green monkey Vero cells by MTT assay; type: cell-based; details: chlorocebus sabaeus
Entries and their CC50 values follow.

Cn1nc(C(F)(F)F)cc1C(=O)Nc1ccc(S(=O)(=O)NC2CCCCC2)cc1
15 µM
Cn1nc(C(F)(F)F)cc1C(=O)Nc1ccc(S(=O)(=O)N2CCCC(C(=O)O)C2)cc1 (centres undefined)
> 300 µM
Cn1nc(C(F)(F)F)cc1C(=O)Nc1ccc(S(=O)(=O)N2CCC(O)CC2)cc1
274 µM
Cn1nc(C(F)(F)F)cc1C(=O)Nc1ccc(S(=O)(=O)N2CCC(C(F)(F)F)CC2)cc1
159 µM

Next up:
Q: Data request, read-out CC50, for `Cn1nc(C(F)(F)F)cc1C(=O)Nc1ccc(S(=O)(=O)N2CCOCC2)cc1`
Ans: > 300 µM

###

Entries and their EC50 values follow.
system: Measles morbillivirus; test: Antiviral activity against Measles virus Alaska in Vero cells assessed as reduction of viral titer; type: functional, organism-based
Express it in nM; write the number only.

CCn1nc(C(F)(F)F)cc1C(=O)Nc1ccc(S(=O)(=O)N2CCCCC2C)cc1 (centres undefined)
55
Cn1nc(C(F)(F)F)cc1C(=O)Nc1ccc(S(=O)(=O)N2CCCCCC2)cc1
5
CCC1CCCCN1S(=O)(=O)c1ccc(NC(=O)c2cc(C(F)(F)F)nn2C)cc1 (centres undefined)
87
CC1CCN(S(=O)(=O)c2ccc(NC(=O)c3cc(C(F)(F)F)nn3C)cc2)CC1
35

Q: Data request, read-out EC50, for Cn1nc(C(F)(F)F)cc1C(=O)Nc1ccc(S(=O)(=O)N2CCCCC2CO)cc1 (centres undefined)
Ans: 850

Q: // query: `CCCN(CCC)S(=O)(=O)c1ccc(NC(=O)c2cc(C(F)(F)F)nn2C)cc1`
Ans: 190

Q: // query: `Cn1nc(C(F)(F)F)cc1C(=O)Nc1ccc(S(=O)(=O)N2CCC(C(F)(F)F)CC2)cc1`
Ans: 20

###

assay: Cytotoxicity against african green monkey Vero cells by MTT assay; assay type: cell-based; details: chlorocebus sabaeus
Metric Name: CC50 (µM)
Express it in µM; write the number only.

Answered examples (2):
C=CCN(CC=C)S(=O)(=O)c1ccc(NC(=O)c2cc(C(F)(F)F)nn2C)cc1
34
Cn1nc(C(F)(F)F)cc1C(=O)Nc1ccc(S(=O)(=O)N2CCCCC2C(=O)OC(C)(C)C)cc1 (stereo unspecified)
38

Q: Data request, read-out CC50, for COC(=O)C1CCCCN1S(=O)(=O)c1ccc(NC(=O)c2cc(C(F)(F)F)nn2C)cc1 (stereo unspecified)
Ans: 136

Q: // query: `CN(C(=O)c1cc(C(F)(F)F)nn1C)c1ccc(S(=O)(=O)N2CCCCC2)cc1`
Ans: 286

Q: // query: CCn1nc(C(F)(F)F)cc1C(=O)Nc1ccc(S(=O)(=O)N2CCCCC2C)cc1 (stereo unspecified)
Ans: 30

Q: // query: `COC=C1CCN(S(=O)(=O)c2ccc(NC(=O)c3cc(C(F)(F)F)nn3C)cc2)CC1`
Ans: 92

Q: // query: `CC(C)CN(CC(C)C)S(=O)(=O)c1ccc(NC(=O)c2cc(C(F)(F)F)nn2C)cc1`
Ans: 13.8

###

experiment: Selectivity index, ratio of CC50 for african green monkey Vero cells to EC50 for Measles virus Alaska; assay type: toxicity, cell-based; conditions: read-out: Ratio CC50/EC50
Entries and their selectivity ratio values follow.

Cn1nc(C(F)(F)F)c(Br)c1C(=O)Nc1ccc(S(=O)(=O)N2CCCC2)cc1
< 1.3

Q: Data request, read-out selectivity ratio, for `Cn1nc(C(F)(F)F)cc1C(=O)Nc1ccc(S(=O)(=O)N2CCCCC2)cc1`
Ans: > 130

###

assay: Cytotoxicity against african green monkey Vero cells by MTT assay; assay type: cell-based; settings: chlorocebus sabaeus
Entries and their CC50 values follow.

Answered examples (5):
CC1CCCCN1S(=O)(=O)c1ccc(NC(=O)c2cc(C(F)(F)F)nn2C)cc1 (stereo not drawn)
> 300 µM
CCCN(CCC)S(=O)(=O)c1ccc(NC(=O)c2cc(C(F)(F)F)nn2C)cc1
> 300 µM
CCN(CC)S(=O)(=O)c1ccc(NC(=O)c2cc(C(F)(F)F)nn2C)cc1
> 300 µM
Cn1nc(C(F)(F)F)cc1C(=O)Nc1ccc(S(=O)(=O)N2CCCCCCC2)cc1
16 µM
Cn1nc(C(F)(F)F)cc1C(=O)Nc1ccc(S(=O)(=O)N2CCCCC2C(=O)O)cc1 (stereo not drawn)
> 300 µM

Q: Data request, read-out CC50, for `Cn1nc(C(F)(F)F)c(Br)c1C(=O)Nc1ccc(S(=O)(=O)N2CCCC2)cc1`
Ans: 95 µM

Q: // query: CC1CCCCN1S(=O)(=O)c1cccc(NC(=O)c2cc(C(F)(F)F)nn2C)c1 (stereo not drawn)
Ans: 84 µM

Q: // query: CC1CCCC(C)N1S(=O)(=O)c1ccc(NC(=O)c2cc(C(F)(F)F)nn2C)cc1 (stereo not drawn)
Ans: > 300 µM

###

assay: Cytotoxicity against african green monkey Vero cells by MTT assay; format: cell-based; details: chlorocebus sabaeus
Entries and their CC50 values follow.

Answered examples (6):
CN(C)S(=O)(=O)c1ccc(NC(=O)c2cc(C(F)(F)F)nn2C)cc1
> 300 µM
CC1CCCCN1S(=O)(=O)c1ccc(NC(=O)c2cc(C(F)(F)F)nn2C(C)C)cc1 (centres undefined)
> 300 µM
CC1CCN(S(=O)(=O)c2ccc(NC(=O)c3cc(C(F)(F)F)nn3C)cc2)CC1
> 300 µM
Cn1nc(C(F)(F)F)cc1C(=O)Nc1ccc(S(=O)(=O)OC2CCCCC2)cc1
> 300 µM
Cn1nc(C(F)(F)F)cc1C(=O)Nc1ccc(S(=O)(=O)N2CCCCCC2)cc1
> 300 µM
CC(C)N(C(C)C)S(=O)(=O)c1ccc(NC(=O)c2cc(C(F)(F)F)nn2C)cc1
> 300 µM

Q: Data request, read-out CC50, for CCC1CCCCN1S(=O)(=O)c1ccc(NC(=O)c2cc(C(F)(F)F)nn2C)cc1 (centres undefined)
Ans: > 300 µM

Q: // query: `Cn1nc(C(F)(F)F)cc1C(=O)Nc1ccc(S(=O)(=O)N2CCN(CCOCCO)CC2)cc1`
Ans: > 300 µM

Q: // query: `Cn1nc(C(F)(F)F)cc1C(=O)Nc1ccc(S(=O)(=O)N2CCC(NC(=O)OC(C)(C)C)CC2)cc1`
Ans: > 300 µM
